Attribution: the kinase profiling compilation of Christmann-Franck et al. (2016)

# MEASURED_TARGET: NLK (human) (UniProt Q9UBE8)
# Sequence (Q9UBE8 whole entry, looked up): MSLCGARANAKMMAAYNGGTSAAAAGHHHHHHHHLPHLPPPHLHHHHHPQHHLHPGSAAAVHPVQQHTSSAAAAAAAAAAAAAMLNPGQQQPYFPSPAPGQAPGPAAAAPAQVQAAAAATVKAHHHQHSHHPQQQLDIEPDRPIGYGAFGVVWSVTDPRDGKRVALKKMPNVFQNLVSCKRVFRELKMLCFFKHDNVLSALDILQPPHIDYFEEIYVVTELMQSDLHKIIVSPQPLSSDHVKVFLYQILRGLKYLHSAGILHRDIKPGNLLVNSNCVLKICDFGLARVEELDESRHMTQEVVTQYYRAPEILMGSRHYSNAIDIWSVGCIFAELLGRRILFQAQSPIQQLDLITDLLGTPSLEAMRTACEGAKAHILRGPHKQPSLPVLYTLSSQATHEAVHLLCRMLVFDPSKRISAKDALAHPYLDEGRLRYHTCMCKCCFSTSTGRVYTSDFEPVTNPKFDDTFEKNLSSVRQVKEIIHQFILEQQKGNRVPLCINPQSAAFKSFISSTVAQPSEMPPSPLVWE
# PROTOCOL_NOTES: radiometric filter-binding kinase assay, Kinase HotSpot
# STUDY_CONDITIONS: compound 0.5 µM; ATP 10 µM
EXPERIMENTAL_ENDPOINT: residual activity (%)
Write the value in % as a bare number.

GET /value?item= O=C(Nc1ccc(Cl)cc1)c1ccccc1NCc1ccncc1 &field=residual activity returns 87.2

GET /value?item= COc1ccc(-c2cnc3c(-c4ccsc4)cnn3c2)cc1 &field=residual activity returns 74.5

GET /value?item= COc1cc2nccc(Oc3ccc(NC(=S)NC(=O)c4ccccc4C)cc3)c2cc1OC &field=residual activity returns 100

GET /value?item= COc1cc2ncnc(Nc3ccc(F)c(Cl)c3)c2cc1OCCCN1CCOCC1 &field=residual activity returns 91.1

###

# MEASURED_TARGET: RPS6KA2 KD1 KD2 (human) (UniProt Q15349)
# Sequence (Q15349 whole entry, looked up): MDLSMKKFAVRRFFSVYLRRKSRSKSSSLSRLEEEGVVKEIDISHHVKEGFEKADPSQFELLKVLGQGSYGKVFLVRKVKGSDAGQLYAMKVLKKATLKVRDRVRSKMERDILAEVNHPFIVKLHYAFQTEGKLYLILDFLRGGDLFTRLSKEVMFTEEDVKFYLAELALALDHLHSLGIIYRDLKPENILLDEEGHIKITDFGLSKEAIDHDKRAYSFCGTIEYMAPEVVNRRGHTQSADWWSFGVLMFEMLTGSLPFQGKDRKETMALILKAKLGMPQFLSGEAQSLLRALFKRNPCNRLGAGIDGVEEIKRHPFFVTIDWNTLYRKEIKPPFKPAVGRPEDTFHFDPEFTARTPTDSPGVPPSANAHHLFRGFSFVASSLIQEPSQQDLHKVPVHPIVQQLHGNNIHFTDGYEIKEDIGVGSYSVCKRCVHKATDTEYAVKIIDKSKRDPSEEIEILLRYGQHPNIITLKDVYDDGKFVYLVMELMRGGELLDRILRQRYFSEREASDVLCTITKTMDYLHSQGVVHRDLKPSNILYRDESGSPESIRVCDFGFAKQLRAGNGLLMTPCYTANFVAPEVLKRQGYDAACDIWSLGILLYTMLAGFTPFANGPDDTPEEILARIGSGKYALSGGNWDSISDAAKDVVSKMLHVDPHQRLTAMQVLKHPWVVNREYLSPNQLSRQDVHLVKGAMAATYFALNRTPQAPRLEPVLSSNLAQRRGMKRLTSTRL
# PROTOCOL_NOTES: radiometric filter-binding kinase assay, Kinase HotSpot
# STUDY_CONDITIONS: compound 0.5 µM; ATP 10 µM
Answer false (0) if residual activity is under 90%, and true (1) if it is 90% or more.

Given the entry CS(=O)c1ccc(-c2nc(-c3ccc(F)cc3)c(-c3ccncc3)[nH]2)cc1 (configuration not stated) , answer whether its residual activity meets or surpasses 90%.
true (1)

Given the entry Nc1nc(Nc2ccc(S(N)(=O)=O)cc2)nn1C(=S)Nc1c(F)cccc1F , answer whether its residual activity meets or surpasses 90%.
false (0)

Given the entry Nc1nc(Nc2ccc(S(N)(=O)=O)cc2)nn1C(=O)c1c(F)cccc1F , answer whether its residual activity meets or surpasses 90%.
false (0)

Given the entry O=C(Nc1ccc(Cl)cc1)c1ccccc1NCc1ccncc1 , answer whether its residual activity meets or surpasses 90%.
true (1)

Given the entry CCCNC(=O)Nc1ccc(Oc2ncnc3cc(OC)c(OC)cc23)cc1Cl , answer whether its residual activity meets or surpasses 90%.
true (1)

Given the entry O=c1cc(N2CCNCC2)oc2c(-c3ccccc3)cccc12 , answer whether its residual activity meets or surpasses 90%.
true (1)

Given the entry NC(=O)c1ccc(N(C(N)=O)c2c(F)cccc2F)nc1-c1ccc(F)cc1F , answer whether its residual activity meets or surpasses 90%.
true (1)

Given the entry CSc1nc(-c2ccc(F)cc2)c(-c2ccnc(NC(C)c3ccccc3)c2)[nH]1 (configuration not stated) , answer whether its residual activity meets or surpasses 90%.
true (1)

Given the entry O=c1cc(-c2cccc3c2Sc2ccccc2S3)oc(N2CCOCC2)c1 , answer whether its residual activity meets or surpasses 90%.
false (0)

Given the entry COc1cc2ncnc(Nc3ccc(F)c(Cl)c3)c2cc1OCCCN1CCOCC1 , answer whether its residual activity meets or surpasses 90%.
false (0)

Given the entry O=C1Nc2cc(Br)ccc2/C1=C1/Nc2ccccc2/C1=N\O , answer whether its residual activity meets or surpasses 90%.
false (0)

Given the entry C#Cc1cccc(Nc2ncnc3cc(OCCOC)c(OCCOC)cc23)c1 , answer whether its residual activity meets or surpasses 90%.
true (1)

Given the entry CC(C)[C@H](CO)Nc1nc(Nc2cccc(Cl)c2)c2ncn(C(C)C)c2n1 , answer whether its residual activity meets or surpasses 90%.
false (0)

Given the entry Cc1ccc(NC(=O)c2ccc(CN3CCN(C)CC3)cc2)cc1Nc1nc(-c2cccnc2)cs1 , answer whether its residual activity meets or surpasses 90%.
true (1)

Given the entry Oc1ccc(-c2nc(-c3ccc(F)cc3)c(-c3ccncc3)[nH]2)cc1 , answer whether its residual activity meets or surpasses 90%.
true (1)

Given the entry Clc1ccc(Nc2nnc(Cc3ccncc3)c3ccccc23)cc1 , answer whether its residual activity meets or surpasses 90%.
true (1)

Given the entry CC(C)(C)c1nc2c3ccc(F)cc3c3c(=O)[nH]ccc3c2[nH]1 , answer whether its residual activity meets or surpasses 90%.
false (0)

Given the entry Nc1n[nH]c2nnc(-c3c(-c4ccccc4)nn4ccccc34)cc12 , answer whether its residual activity meets or surpasses 90%.
true (1)

Given the entry O=C(NC(NC(=S)Nc1ccc(F)c([N+](=O)[O-])c1)C(Cl)(Cl)Cl)C(c1ccccc1)c1ccccc1 (configuration not stated) , answer whether its residual activity meets or surpasses 90%.
true (1)
